B1: C1orf55 (parent)
chain: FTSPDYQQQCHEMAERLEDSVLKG

variants of: B1; assay: protein stability index of a GFP-peptide fusion (GPS, HEK-293T) (PSI 1-6); higher = more stable; conditions: c terminus: a fixed tail appended;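 further: lentivirally expressed fusions sorted by FACS into six bins by GFP to DsRed ratio, PSI derived from sequencing read proportions per bin multiplied by bin number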
Category scheme (protein stability index): LOW (below 2), MEDIUM (2 to below 3), HIGH (3 or more)

Observe how each entry below is paired with its result.
Which class is correct for the following variant? `C10Y`
HIGH

Which class is correct for the following variant? `R16N`
MEDIUM

Which class is correct for the following variant? `E12P`
LOW

Which class is correct for the following variant? `P4A`
MEDIUM

Which class is correct for the following variant? `M13R`
MEDIUM

Which class is correct for the following variant? `Q8D`
HIGH

Which class is correct for the following variant? `C10Q`
HIGH

Which class is correct for the following variant? `G24I`
LOW

***
Which class is correct for the following variant? `R16A`
MEDIUM

Which class is correct for the following variant? `E15N`
LOW
